B1: TPR t1 (parent)
chain: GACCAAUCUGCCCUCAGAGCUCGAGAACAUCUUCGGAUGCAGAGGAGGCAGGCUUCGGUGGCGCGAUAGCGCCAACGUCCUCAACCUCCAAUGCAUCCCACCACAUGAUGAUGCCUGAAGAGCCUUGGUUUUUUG

- Variants of: B1
- test-name: polymerase ribozyme fitness, log enrichment relative to wild type (log ratio); higher = more active; in vitro selection for triplet polymerase activity
Class assignment keyed on polymerase ribozyme fitness (log ratio), ranges category 1: < -3; category 2: ≥ -3 and < -1; category 3: ≥ -1

| mutation-key | assigned-label |
| --- | --- |
| G44A C72A U78C A119G | category 3 |
| C70U A95U A111U G120U | category 1 |
| C62A A90G | category 3 |
| C11U C89A | category 2 |
| G45C U129A | category 2 |
| G45A A105G | category 1 |
| G45A G61A G110U U125C | category 3 |
| C99U C101A | category 1 |
| U33G G61A A121U G127U U133A | category 1 |
| C76A C85A | category 3 |
| C11G C12G A46G G71U | category 3 |
| A6G C15U C49A C53A G71U U78A | category 3 |
| G47C C123A | category 3 |
| C4G G69C G127A | category 2 |
| G39U C97A | category 1 |
| C70A G113C | category 1 |
| A6G C12G A46U A50U C56U C73A | category 2 |
| C8G A37U G44A G60C C115A | category 3 |
| C20U A26G G71U U109A | category 1 |
| U7C C31U | category 1 |
| G42A U116C | category 1 |
| C13G A29G G42A | category 1 |
| C13U G39A C70A C104U | category 2 |
| U7C A27G U92A | category 1 |
| C8G A18U C73G U126G | category 1 |
| C8G C49G C89G | category 2 |
| C8U C12G G69C | category 2 |
| C28G A111G | category 1 |
| A6C G35C G57U G58U G60C U81G A111G U125C G135A | category 1 |
| C72A U78G | category 2 |
| G61A A74C C79A U131G | category 2 |
| C12A G71U | category 3 |
| C97U C114A | category 2 |
| A43C U87A U106A | category 2 |
| U38G G44A | category 2 |
| C49A G60A G135C | category 3 |
| G45A C62U C115U U116C U126A G128C | category 1 |
